These measurements were taken from patent US8940909B2.

# Tested on: Escherichia coli 270
# test_name: IO staining of colonies of beta-D-galactosidase positive/negative bacteria (Table IVb)
# Assay type: cell-based
# condition_context: Escherichia coli strain 270, b-gal +; 24 h on Nutrient Agar, 150 mg/l indicator, 100 mg/l IPTG
reported_metric: F: Fluorescence of colonies

{"compound": "CC(=O)c1ccccc1-n1cc(O[C@@H]2O[C@H](CO)[C@H](O)[C@H](O)[C@H]2O)c2ccc(Cl)cc21 [Indicator I16a]", "reported_metric": "F: Fluorescence of colonies", "val": "+"}
{"compound": "Cn1cccc1C(=O)c1ccccc1-n1cc(O[C@@H]2O[C@H](CO)[C@H](O)[C@H](O)[C@H]2O)c2ccc(Cl)cc21 [Indicator I31a]", "reported_metric": "F: Fluorescence of colonies", "val": "+/−"}
{"compound": "O=C(c1ccccc1)c1ccccc1-n1cc(O[C@@H]2O[C@H](CO)[C@H](O)[C@H](O)[C@H]2O)c2ccc(Cl)cc21 [Indicator I21a]", "reported_metric": "F: Fluorescence of colonies", "val": "+"}
{"compound": "COc1ccc(C(=O)c2ccccc2-n2cc(O[C@@H]3O[C@H](CO)[C@H](O)[C@H](O)[C@H]3O)c3c(Cl)c(Br)ccc32)c(OC)c1 [Indicator I28a]", "reported_metric": "F: Fluorescence of colonies", "val": "+/−"}
{"compound": "O=C(c1ccccc1)c1ccccc1-n1cc(O[C@@H]2O[C@H](CO)[C@H](O)[C@H](O)[C@H]2O)c2c(Cl)c(Br)ccc21 [Indicator I22a]", "reported_metric": "F: Fluorescence of colonies", "val": "+/−"}
{"compound": "COc1ccc(C(=O)c2ccccc2-n2cc(O[C@@H]3O[C@H](CO)[C@H](O)[C@H](O)[C@H]3O)c3ccc(Cl)cc32)c(OC)c1 [Indicator I27a]", "reported_metric": "F: Fluorescence of colonies", "val": "++"}
{"compound": "COc1ccc(C(=O)c2ccccc2-n2cc(O[C@@H]3O[C@H](CO)[C@H](O)[C@H](O)[C@H]3O)c3ccccc32)c(OC)c1 [Indicator I25a]", "reported_metric": "F: Fluorescence of colonies", "val": "++"}

* * *

# System: Staphylococcus intermedius 31
# test_name: IO staining of colonies of beta-D-galactosidase positive/negative bacteria (Table IVb)
# Format: cell-based
# condition_context: Staphylococcus intermedius strain 31, b-gal +; 24 h on Nutrient Agar, 150 mg/l indicator, 100 mg/l IPTG
reported_metric: G: Growth of colonies

{"compound": "O=C(c1ccccc1)c1ccccc1-n1cc(O[C@@H]2O[C@H](CO)[C@H](O)[C@H](O)[C@H]2O)c2ccc(Cl)cc21 [Indicator I21a]", "system_under_test": "Staphylococcus intermedius 31", "reported_metric": "G: Growth of colonies", "val": "+/−"}
{"compound": "CC(=O)c1ccccc1-n1cc(O[C@@H]2O[C@H](CO)[C@H](O)[C@H](O)[C@H]2O)c2ccc(Cl)cc21 [Indicator I16a]", "system_under_test": "Staphylococcus intermedius 31", "reported_metric": "G: Growth of colonies", "val": "+/−"}
{"compound": "COc1ccc(C(=O)c2ccccc2-n2cc(O[C@@H]3O[C@H](CO)[C@H](O)[C@H](O)[C@H]3O)c3c(Cl)c(Br)ccc32)c(OC)c1 [Indicator I28a]", "system_under_test": "Staphylococcus intermedius 31", "reported_metric": "G: Growth of colonies", "val": "+"}
{"compound": "COc1ccc(C(=O)c2ccccc2-n2cc(O[C@@H]3O[C@H](CO)[C@H](O)[C@H](O)[C@H]3O)c3ccc(Cl)cc32)c(OC)c1 [Indicator I27a]", "system_under_test": "Staphylococcus intermedius 31", "reported_metric": "G: Growth of colonies", "val": "+/−"}
{"compound": "Cn1cccc1C(=O)c1ccccc1-n1cc(O[C@@H]2O[C@H](CO)[C@H](O)[C@H](O)[C@H]2O)c2ccc(Cl)cc21 [Indicator I31a]", "system_under_test": "Staphylococcus intermedius 31", "reported_metric": "G: Growth of colonies", "val": "+"}
{"compound": "COc1ccc(C(=O)c2ccccc2-n2cc(O[C@@H]3O[C@H](CO)[C@H](O)[C@H](O)[C@H]3O)c3ccccc32)c(OC)c1 [Indicator I25a]", "system_under_test": "Staphylococcus intermedius 31", "reported_metric": "G: Growth of colonies", "val": "+"}
{"compound": "O=C(c1ccccc1)c1ccccc1-n1cc(O[C@@H]2O[C@H](CO)[C@H](O)[C@H](O)[C@H]2O)c2c(Cl)c(Br)ccc21 [Indicator I22a]", "system_under_test": "Staphylococcus intermedius 31", "reported_metric": "G: Growth of colonies", "val": "−"}

* * *

# System: beta-galactosidase negative Salmonella enteritidis (RKI 05/07992); also: key: −: absent; +/−: weak; +: strong; ++: very strong
# Assay type: cell-based
# condition_context: S. enteritidis (b-gal negative), 24 h, 150 mg/l substrate and 100 mg/l IPTG, 366 nm UV
reported_metric: F: Fluorescence of colonies (strength)

{"molecule": "CC(=O)c1ccccc1-n1cc(O[C@@H]2O[C@H](CO)[C@H](O)[C@H](O)[C@H]2O)c2c(Cl)c(Br)ccc21 [Indicator I17a]", "val": "−"}
{"molecule": "O=C(c1ccco1)c1ccccc1-n1cc(O[C@@H]2O[C@H](CO)[C@H](O)[C@H](O)[C@H]2O)c2ccc(Cl)cc21 [Indicator I30a]", "val": "−"}
{"molecule": "COC(=O)c1ccccc1-n1cc(O[C@@H]2O[C@H](CO)[C@H](O)[C@H](O)[C@H]2O)c2ccccc21 [Indicator I10a]", "val": "−"}
{"molecule": "COc1ccc(C(=O)c2ccccc2-n2cc(O[C@@H]3O[C@H](CO)[C@H](O)[C@H](O)[C@H]3O)c3c(Cl)cccc32)c(OC)c1 [Indicator I26a]", "val": "−"}
{"molecule": "O=Cc1ccccc1-n1cc(O[C@@H]2O[C@H](CO)[C@H](O)[C@H](O)[C@H]2O)c2ccccc21 [Indicator I13a]", "val": "−"}
{"molecule": "COc1ccc(C(=O)c2ccccc2)c(-n2cc(O[C@@H]3O[C@H](CO)[C@H](O)[C@H](O)[C@H]3O)c3ccc(Cl)cc32)c1 [Indicator I24a]", "val": "−"}
{"molecule": "COc1ccc(C(C)=O)c(-n2cc(O[C@@H]3O[C@H](CO)[C@H](O)[C@H](O)[C@H]3O)c3ccc(Cl)cc32)c1 [Indicator I18a]", "val": "−"}
{"molecule": "COc1ccc(C(=O)c2ccccc2-n2cc(O[C@@H]3O[C@H](CO)[C@H](O)[C@H](O)[C@H]3O)c3c(Cl)c(Br)ccc32)c(OC)c1 [Indicator I28a]", "val": "−"}

* * *

# Test system: Escherichia coli
# test_name: IN and IO staining of bacterial colonies under anaerobic conditions
# Format: cell-based
# condition_context: Nutrient Agar plates, anaerobically incubated with E. coli
reported_metric: D: Diffusion around colonies

{"compound": "COc1ccc(C(=O)c2ccccc2-n2cc(O[C@@H]3O[C@H](CO)[C@H](O)[C@H](O)[C@H]3O)c3ccc(Cl)cc32)c(OC)c1 [Indicator I27a]", "reported_metric": "D: Diffusion around colonies", "val": "+/−"}
{"compound": "Cn1cccc1C(=O)c1ccccc1-n1cc(O[C@@H]2O[C@H](CO)[C@H](O)[C@H](O)[C@H]2O)c2ccc(Cl)cc21 [Indicator I31a]", "reported_metric": "D: Diffusion around colonies", "val": "+"}
{"compound": "O=C(c1ccccc1)c1ccccc1-n1cc(O[C@@H]2O[C@H](CO)[C@H](O)[C@H](O)[C@H]2O)c2ccc(Cl)cc21 [Indicator I21a]", "reported_metric": "D: Diffusion around colonies", "val": "+/−"}
{"compound": "O=C(c1ccccc1)c1ccccc1-n1cc(O[C@@H]2O[C@H](CO)[C@H](O)[C@H](O)[C@H]2O)c2c(Cl)c(Br)ccc21 [Indicator I22a]", "reported_metric": "D: Diffusion around colonies", "val": "−"}

* * *

# System: Enterobacter cloacae 245
# test_name: IO staining of colonies of beta-D-galactosidase positive/negative bacteria (Table IVb)
# Assay type: cell-based
# condition_context: Enterobacter cloacae strain 245, b-gal +; 24 h on Nutrient Agar, 150 mg/l indicator, 100 mg/l IPTG
reported_metric: F: Fluorescence of colonies

{"compound": "COc1ccc(C(=O)c2ccccc2-n2cc(O[C@@H]3O[C@H](CO)[C@H](O)[C@H](O)[C@H]3O)c3c(Cl)c(Br)ccc32)c(OC)c1 [Indicator I28a]", "reported_metric": "F: Fluorescence of colonies", "val": "+/−"}
{"compound": "O=C(c1ccccc1)c1ccccc1-n1cc(O[C@@H]2O[C@H](CO)[C@H](O)[C@H](O)[C@H]2O)c2c(Cl)c(Br)ccc21 [Indicator I22a]", "reported_metric": "F: Fluorescence of colonies", "val": "+/−"}
{"compound": "Cn1cccc1C(=O)c1ccccc1-n1cc(O[C@@H]2O[C@H](CO)[C@H](O)[C@H](O)[C@H]2O)c2ccc(Cl)cc21 [Indicator I31a]", "reported_metric": "F: Fluorescence of colonies", "val": "+/−"}
{"compound": "O=C(c1ccccc1)c1ccccc1-n1cc(O[C@@H]2O[C@H](CO)[C@H](O)[C@H](O)[C@H]2O)c2ccc(Cl)cc21 [Indicator I21a]", "reported_metric": "F: Fluorescence of colonies", "val": "+"}
{"compound": "COc1ccc(C(=O)c2ccccc2-n2cc(O[C@@H]3O[C@H](CO)[C@H](O)[C@H](O)[C@H]3O)c3ccccc32)c(OC)c1 [Indicator I25a]", "reported_metric": "F: Fluorescence of colonies", "val": "++"}
{"compound": "COc1ccc(C(=O)c2ccccc2-n2cc(O[C@@H]3O[C@H](CO)[C@H](O)[C@H](O)[C@H]3O)c3ccc(Cl)cc32)c(OC)c1 [Indicator I27a]", "reported_metric": "F: Fluorescence of colonies", "val": "++"}
{"compound": "CC(=O)c1ccccc1-n1cc(O[C@@H]2O[C@H](CO)[C@H](O)[C@H](O)[C@H]2O)c2ccc(Cl)cc21 [Indicator I16a]", "reported_metric": "F: Fluorescence of colonies", "val": "+"}
